test: clinical pharmacokinetics of ETC-1002; type: in vivo, human; conditions: human, in vivo; oral; read-out: mean t1/2
Quantity kind: half-life

                                   molecule  quantity_kind    observed
0  CC(C)(CCCCCC(O)CCCCCC(C)(C)C(=O)O)C(=O)O      half-life  15 to 27 h

###

test: pivotal 6-month rat study; conditions: both sexes, in vivo, oral, male and female rats, read-out: no-observed-adverse-effect level (NOAEL) dose
Quantity kind: NOAEL at 6 months (mg/kg/day)

>>> df
                                   molecule  unit_label  observed
0  CC(C)(CCCCCC(O)CCCCCC(C)(C)C(=O)O)C(=O)O [ETC-1002]   mg/kg/day        30
